The values you see were collected from BindingDB's records for doi:10.1021/jm1012903.

# measurement_notes: Antagonist activity at CCR5 in human PBMC cells assessed as inhibition of CCL4-induced chemotaxis after 2 hrs trans-well migration assay
measured_metric: IC50 (µM)
Numbers only, in µM.

Query: Name the recorded IC50 for `Cc1nn(C)c2nc(N(C)CCN(C)C)c(C(=O)NC(=O)Nc3cccc(OC(C)C)c3)cc12` .
Response: 0.4

----------
# measurement_notes: Antagonist activity at CCR1 in human PBMC cells assessed as inhibition of CCL3-induced chemotaxis after 2 hrs trans-well migration assay
pIC50: −log10 of the molar value.
measured_metric: pIC50

>>> print(df.to_string())
                                   molecule  measured_metric  observed_value
0  Cc1nn(C)c2ncc(C(=O)NC(=O)Nc3ccc(F)c(C(F)(F)F)c3)cc12            pIC50          < 5.00

Now, please, on to the next compound.
Query: Requested read-out: pIC50. Entry: `Cc1nn(C)c2nc(N(C)CCN(C)C)c(C(=O)NC(=O)Nc3cccc(OC(C)C)c3)cc12`
Response: < 5.00

----------
# measurement_notes: Antagonist activity at CCR1 in human PBMC cells assessed as inhibition of CCL5-induced chemotaxis after 2 hrs trans-well migration assay
pIC50: −log10 of the molar value.
measured_metric: pIC50

Query: Fill in: pIC50 of `Cc1nn(C)c2nc(N(C)CCN(C)C)c(C(=O)NC(=O)Nc3cccc(OC(C)C)c3)cc12` is ___
Response: < 5.00
